Reported IC50 values follow for various molecules
- assay_method_text: Anticancer human tumor 997537-175-T-J1-PDC patient-derived colon adenocarcinoma cell line growth inhibition [POLQ]
- condition_set: 997537-175-T-J1-PDC complex spheroid viability, combination with POLQ inhibitors; curve of first compound; second compound 1 µM
Give just the numeric value; µM need not be written.

1) CCCS(=O)(=O)Nc1ccc(F)c(C(=O)c2c[nH]c3ncc(-c4ccc(Cl)cc4)cc23)c1F + COC1C(OC(N)=O)C(O)C(Oc2ccc3c(O)c(NC(=O)c4ccc(O)c(CC=C(C)C)c4)c(=O)oc3c2C)OC1(C)C	5.26

Q: Quick check: IC50 of CCCS(=O)(=O)Nc1ccc(F)c(C(=O)c2c[nH]c3ncc(-c4ccc(Cl)cc4)cc23)c1F + Nc1ccc(C#CCN(C(=O)Cc2ncc(C(F)(F)F)cc2C(F)(F)F)c2ccc(F)cc2)nn1 ?
Result: 5.25

* * *

- assay_method_text: Anticancer human tumor 997537-175-T-J1-PDC cell line growth inhibition [POLQ];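 further: luminescence signal used as a surrogate for viable cells; spheroids exposed to drugs for seven days before readout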
- condition_set: 997537-175-T-J1-PDC complex spheroid viability, combination with POLQ inhibitors; second compound 10 µM; first compound 0.316 µM; stronger effect = lower value
Measured viability, T/C accompanies every entry in the list below.
Numeric only. Scale: %

1) CC1COCCN1c1cc(C2(S(C)(=N)=O)CC2)nc(-c2ccnc3[nH]ccc23)n1 (stereo not given) + Nc1ccc(C#CCN(C(=O)Cc2ncc(C(F)(F)F)cc2C(F)(F)F)c2ccc(F)cc2)nn1	94.6

Q: I would be grateful if you could share the reported viability, T/C for C=CCn1c(=O)c2cnc(Nc3ccc(N4CCN(C)CC4)cc3)nc2n1-c1cccc(C(C)(C)O)n1 + Nc1ccc(C#CCN(C(=O)Cc2ncc(C(F)(F)F)cc2C(F)(F)F)c2ccc(F)cc2)nn1 .
Result: 97.4

Q: Need viability, T/C of C=CC(=O)N1CCN(c2nc(=O)n(-c3c(C)ccnc3C(C)C)c3nc(-c4c(O)cccc4F)c(F)cc23)C(C)C1 (stereo not given) + Nc1ccc(C#CCN(C(=O)Cc2ncc(C(F)(F)F)cc2C(F)(F)F)c2ccc(F)cc2)nn1 , thanks.
Result: 104

Q: Query: viability, T/C; subject: C#Cc1c(F)ccc2cc(O)cc(-c3ncc4c(N5CC6CCC(C5)N6)nc(OCC56CCCN5CC(F)C6)nc4c3F)c12 (stereo not given) + COC1C(OC(N)=O)C(O)C(Oc2ccc3c(O)c(NC(=O)c4ccc(O)c(CC=C(C)C)c4)c(=O)oc3c2C)OC1(C)C
Result: 109

Q: For the molecule COc1cc(C2c3cc4c(cc3C(OC3OC5COC(C)OC5C(O)C3O)C3COC(=O)C23)OCO4)cc(OC)c1O (stereo not given) + COC1C(OC(N)=O)C(O)C(Oc2ccc3c(O)c(NC(=O)c4ccc(O)c(CC=C(C)C)c4)c(=O)oc3c2C)OC1(C)C , what viability, T/C is on record?
Result: 108

* * *

Form field: viability, T/C (one value per entry).
- assay_method_text: Anticancer human tumor 997537-175-T-J1-PDC cell line growth inhibition [POLQ];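 further: luminescence signal used as a surrogate for viable cells; spheroids exposed to drugs for seven days before readout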
- condition_set: 997537-175-T-J1-PDC complex spheroid viability, combination with POLQ inhibitors; second compound 0.1 µM; first compound 0.1 µM; stronger effect = lower value
The reply should contain only the number, in %.

1. CC[C@@]1(O)C(=O)OCc2c1cc1n(c2=O)Cc2cc3c(CN(C)C)c(O)ccc3nc2-1 + Nc1ccc(C#CCN(C(=O)Cc2ncc(C(F)(F)F)cc2C(F)(F)F)c2ccc(F)cc2)nn1	58.3

Q: What viability, T/C value was documented for this compound, Nc1ccn(C2OC(CO)C(O)C2(F)F)c(=O)n1 (stereo unspecified) + Nc1ccc(C#CCN(C(=O)Cc2ncc(C(F)(F)F)cc2C(F)(F)F)c2ccc(F)cc2)nn1 ?
Result: 108

Q: Which viability, T/C reading was recorded for the compound CCCS(=O)(=O)Nc1ccc(F)c(C(=O)c2c[nH]c3ncc(-c4ccc(Cl)cc4)cc23)c1F + Cc1cccc(N(C)C(=O)C2C(O)CCN2c2nc(C)cc(C(F)(F)F)c2C#N)c1 ?
Result: 91.7

Q: Query (compound): C=CC(=O)N1CCN(c2nc(=O)n(-c3c(C)ccnc3C(C)C)c3nc(-c4c(O)cccc4F)c(F)cc23)C(C)C1 (stereo unspecified) + Cc1cccc(N(C)C(=O)C2C(O)CCN2c2nc(C)cc(C(F)(F)F)c2C#N)c1 ; field requested: viability, T/C
Result: 114

Q: Could you tell me which viability, T/C is on file for COc1cc(C2c3cc4c(cc3C(OC3OC5COC(C)OC5C(O)C3O)C3COC(=O)C23)OCO4)cc(OC)c1O (stereo unspecified) + Nc1ccc(C#CCN(C(=O)Cc2ncc(C(F)(F)F)cc2C(F)(F)F)c2ccc(F)cc2)nn1 ?
Result: 96.4

Q: Using the record for C=CCn1c(=O)c2cnc(Nc3ccc(N4CCN(C)CC4)cc3)nc2n1-c1cccc(C(C)(C)O)n1 + Nc1ccc(C#CCN(C(=O)Cc2ncc(C(F)(F)F)cc2C(F)(F)F)c2ccc(F)cc2)nn1 , report its viability, T/C.
Result: 95.1

Q: For CCc1c2c(nc3ccc(O)cc13)-c1cc3c(c(=O)n1C2)COC(=O)[C@]3(O)CC + Nc1ccc(C#CCN(C(=O)Cc2ncc(C(F)(F)F)cc2C(F)(F)F)c2ccc(F)cc2)nn1 , what is its reported viability, T/C?
Result: 20.1

Q: Would you mind telling me what viability, T/C value was observed for COc1cccc(OCCCN)c1-c1cc(Nc2cnc(C#N)cn2)n[nH]1 + COC1C(OC(N)=O)C(O)C(Oc2ccc3c(O)c(NC(=O)c4ccc(O)c(CC=C(C)C)c4)c(=O)oc3c2C)OC1(C)C ?
Result: 43.2

Q: Consider the compound Nc1ccn(C2OC(CO)C(O)C2(F)F)c(=O)n1 (stereo unspecified) + Cc1cccc(N(C)C(=O)C2C(O)CCN2c2nc(C)cc(C(F)(F)F)c2C#N)c1 and give its measured viability, T/C.
Result: 91.5

Q: viability, T/C for COc1cccc2c1C(=O)c1c(O)c3c(c(O)c1C2=O)CC(O)(C(=O)CO)CC3OC1CC(N)C(O)C(C)O1 (stereo unspecified) + Nc1ccc(C#CCN(C(=O)Cc2ncc(C(F)(F)F)cc2C(F)(F)F)c2ccc(F)cc2)nn1 ?
Result: 114

Q: Look at this compound and give its reported viability, T/C. CNCc1ccc(-c2[nH]c3cc(F)cc4c3c2CCNC4=O)cc1 + Nc1ccc(C#CCN(C(=O)Cc2ncc(C(F)(F)F)cc2C(F)(F)F)c2ccc(F)cc2)nn1
Result: 102

* * *

- assay_method_text: Anticancer human tumor 997537-175-T-J1-PDC cell line growth inhibition [POLQ];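 further: luminescence signal used as a surrogate for viable cells; spheroids exposed to drugs for seven days before readout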
- condition_set: 997537-175-T-J1-PDC complex spheroid viability, combination with POLQ inhibitors; second compound 0.1 µM; first compound 0.00316 µM; stronger effect = lower value
Consider the following compounds and their measured viability, T/C readings.
Number only, in %; omit the unit.

1) Cn1ncnc1[C@H]1c2n[nH]c(=O)c3cc(F)cc(c23)N[C@@H]1c1ccc(F)cc1 + COC1C(OC(N)=O)C(O)C(Oc2ccc3c(O)c(NC(=O)c4ccc(O)c(CC=C(C)C)c4)c(=O)oc3c2C)OC1(C)C	91.8
2) Cn1ncnc1[C@H]1c2n[nH]c(=O)c3cc(F)cc(c23)N[C@@H]1c1ccc(F)cc1 + Cc1cccc(N(C)C(=O)C2C(O)CCN2c2nc(C)cc(C(F)(F)F)c2C#N)c1	76.2
3) Cn1ncnc1[C@H]1c2n[nH]c(=O)c3cc(F)cc(c23)N[C@@H]1c1ccc(F)cc1 + Nc1ccc(C#CCN(C(=O)Cc2ncc(C(F)(F)F)cc2C(F)(F)F)c2ccc(F)cc2)nn1	99.2
4) C=CCn1c(=O)c2cnc(Nc3ccc(N4CCN(C)CC4)cc3)nc2n1-c1cccc(C(C)(C)O)n1 + COC1C(OC(N)=O)C(O)C(Oc2ccc3c(O)c(NC(=O)c4ccc(O)c(CC=C(C)C)c4)c(=O)oc3c2C)OC1(C)C	115
5) COc1cccc(OCCCN)c1-c1cc(Nc2cnc(C#N)cn2)n[nH]1 + Cc1cccc(N(C)C(=O)C2C(O)CCN2c2nc(C)cc(C(F)(F)F)c2C#N)c1	111

Q: Which viability, T/C is reported for this compound? CCc1c2c(nc3ccc(O)cc13)-c1cc3c(c(=O)n1C2)COC(=O)[C@]3(O)CC + COC1C(OC(N)=O)C(O)C(Oc2ccc3c(O)c(NC(=O)c4ccc(O)c(CC=C(C)C)c4)c(=O)oc3c2C)OC1(C)C
Result: 72.3

Q: What does the record list as viability, T/C for C=CCn1c(=O)c2cnc(Nc3ccc(N4CCN(C)CC4)cc3)nc2n1-c1cccc(C(C)(C)O)n1 + Cc1cccc(N(C)C(=O)C2C(O)CCN2c2nc(C)cc(C(F)(F)F)c2C#N)c1 ?
Result: 99.4

Q: Data request, read-out viability, T/C, for CC[C@@]1(O)C(=O)OCc2c1cc1n(c2=O)Cc2cc3c(CN(C)C)c(O)ccc3nc2-1 + Cc1cccc(N(C)C(=O)C2C(O)CCN2c2nc(C)cc(C(F)(F)F)c2C#N)c1
Result: 92.6

Q: Could you share which viability, T/C value was measured for COc1cccc(OCCCN)c1-c1cc(Nc2cnc(C#N)cn2)n[nH]1 + Nc1ccc(C#CCN(C(=O)Cc2ncc(C(F)(F)F)cc2C(F)(F)F)c2ccc(F)cc2)nn1 ?
Result: 89.1

Q: Reported viability, T/C, compound COc1cccc(OCCCN)c1-c1cc(Nc2cnc(C#N)cn2)n[nH]1 + COC1C(OC(N)=O)C(O)C(Oc2ccc3c(O)c(NC(=O)c4ccc(O)c(CC=C(C)C)c4)c(=O)oc3c2C)OC1(C)C : ____
Result: 106
